The reported numbers originate from ChEMBL document CHEMBL3885861.

Species on record: Rattus norvegicus
Test: Open TG-GATES - Regimen: Single
Assay type: toxicity, organism-based, Sprague-Dawley
Parameters: regimen Single, gender Male, age 6 weeks
Conditions: in vivo, po, 0 mg/kg, 6 h, tissue Plasma, route gavage, dose level Control
Assay endpoint: Cl (meq/L)
The reply should contain only the number, in meq/L.

O=C(N[C@H](CO)[C@H](O)c1ccc([N+](=O)[O-])cc1)C(Cl)Cl
105.2
CC(=O)Oc1cc(C(C)C)c(OCCN(C)C)cc1C
106.6
C#C[C@]1(O)CC[C@H]2[C@@H]3CCc4cc(O)ccc4[C@H]3CC[C@@]21C
109.4
CCN1CCCC1CNC(=O)c1cc(S(N)(=O)=O)ccc1OC (stereo not given) [SULPIRIDE]
105
CCc1oc2ccccc2c1C(=O)c1cc(I)c(O)c(I)c1
104.6
O=C(O)c1cccnc1
103.6
CCSCC[C@H](N)C(=O)O
102.4
C[C@](N)(Cc1ccc(O)c(O)c1)C(=O)O
109

[ask] Report Cl for CC(C)(S)[C@@H](N)C(=O)O
[reply] 106

[ask] Report Cl for Nc1nc(N)c2nc(-c3ccccc3)c(N)nc2n1
[reply] 104.6
